B1: WDR88 (parent)
chain: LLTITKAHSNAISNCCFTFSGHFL

Variants of: B1
Assay: protein stability index of a GFP-peptide fusion (GPS, HEK-293T) (PSI 1-6); higher = more stable;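 note: lentivirally expressed fusions sorted by FACS into six bins by GFP to DsRed ratio, PSI derived from sequencing read proportions per bin multiplied by bin number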
Conditions: c terminus: a fixed tail appended
Rule: protein stability index of 3 or more gives 1; anything lower gives 0.

Solved cases below.
>>> df
    mut  discrete_label
0  C15H               0
1  N10P               0
2  I12R               0
3  C15T               1
4  C15E               0
5   L2S               0

Prompt: Dear colleague, could you confirm whether G21D has protein stability index at or above 3?
Response: 0

Prompt: Dear colleague, could you confirm whether K6I has protein stability index at or above 3?
Response: 0

Prompt: Dear colleague, could you confirm whether L24G has protein stability index at or above 3?
Response: 0

Prompt: Dear colleague, could you confirm whether F23T has protein stability index at or above 3?
Response: 0

Prompt: Dear colleague, could you confirm whether S9M has protein stability index at or above 3?
Response: 0

Prompt: Dear colleague, could you confirm whether L1K has protein stability index at or above 3?
Response: 0

Prompt: Dear colleague, could you confirm whether F17Y has protein stability index at or above 3?
Response: 1

Prompt: Dear colleague, could you confirm whether A7K has protein stability index at or above 3?
Response: 0
